Bucketed by reported CH4 permeability, buckets being small value = under 0.5 Barrer, mid value = from 0.5 Barrer up to 2 Barrer, large value = 2 Barrer and over

# MOLECULE, ASSIGNED_CATEGORY
measured = [
    ("*c1ccc2c(c1)Cc1cc(N3C(=O)c4ccc(C(c5ccc6c(c5)C(=O)N(*)C6=O)(C(F)(F)F)C(F)(F)F)cc4C3=O)ccc1-2 (repeat unit)", "mid value"),
    ("*Oc1ccc(C(C)(c2ccccc2)c2ccc(Oc3ccc(S(=O)(=O)c4ccc(*)cc4)cc3)cc2)cc1 (repeat unit)", "small value"),
    ("*Oc1ccc(S(=O)(=O)c2ccc(Oc3ccc(C(C)(c4ccccc4)c4ccc(*)cc4)cc3)cc2)cc1 (repeat unit)", "small value"),
    ("*c1cc2c(cc1*)C1(C(C)C)c3ccccc3C2(C(C)C)c2cc3c(cc21)Oc1cc2nc(*)c(*)nc2cc1O3 (repeat unit)", "large value"),
    ("*CCCC* (repeat unit)", "large value"),
    ("*c1ccc(N2C(=O)c3ccc(C(c4ccc5c(c4)C(=O)N(*)C5=O)(C(F)(F)F)C(F)(F)F)cc3C2=O)cc1 (repeat unit)", "mid value"),
    ("*Oc1cc(C)c(C(c2cc(C(C)C)c(Oc3ccc(S(=O)(=O)c4ccc(*)cc4)cc3)cc2C)c2ccccc2C(=O)O)cc1C(C)C (repeat unit)", "mid value"),
    ("*Oc1ccc(S(=O)(=O)c2ccc(Oc3cccc4c(*)cccc34)cc2)cc1 (repeat unit)", "small value"),
    ("*OC(=O)c1ccc(C(=O)Oc2ccc(C3(c4ccc(O*)cc4)OC(=O)c4ccccc43)cc2)cc1 (repeat unit)", "small value"),
    ("*CC(*)c1ccc(C)cc1 (repeat unit)", "large value"),
    ("*c1c(C)cc(Cc2cc(C)c(-n3c(=O)c4cc5c(=O)n(*)c(=O)c5cc4c3=O)c(C)c2)cc1C (repeat unit)", "large value"),
    ("*c1c(C)cc(-c2cc(C)c(N3C(=O)c4ccc(Oc5cc(C)c(Oc6ccc7c(c6)C(=O)N(*)C7=O)c(C)c5C)cc4C3=O)c(C)c2)cc1C (repeat unit)", "mid value"),
    ("*CC(*)c1ccc(Cl)cc1 (repeat unit)", "small value"),
    ("*c1c(C)cc(-c2cc(C)c(N3C(=O)c4ccc(Oc5cc(C(C)(C)C)c(Oc6ccc7c(c6)C(=O)N(*)C7=O)cc5C(C)(C)C)cc4C3=O)c(C)c2)cc1C (repeat unit)", "large value"),
    ("*c1cccc(N2C(=O)c3ccc(Oc4ccc5c(c4)C(=O)N(*)C5=O)cc3C2=O)c1 (repeat unit)", "small value"),
    ("*C(C)=C(*)CCCCC (repeat unit)", "large value"),
]

###

# COMPOUND, H2 permeability
data = [
    ("*c1ccc(Oc2ccc(C3(c4ccc(Oc5ccc(N6C(=O)c7ccc(C(c8ccc9c(c8)C(=O)N(*)C9=O)(C(F)(F)F)C(F)(F)F)cc7C6=O)cc5C(F)(F)F)cc4)c4ccccc4-c4ccccc43)cc2)c(C(F)(F)F)c1 (repeat unit)", "151 Barrer"),
    ("*c1ccc(Oc2ccc(C3(c4ccc(Oc5ccc(N6C(=O)c7ccc(C(c8ccc9c(c8)C(=O)N(*)C9=O)(C(F)(F)F)C(F)(F)F)cc7C6=O)cc5)cc4)c4ccccc4-c4ccccc43)cc2)cc1 (repeat unit)", "61.3 Barrer"),
]
